# Assay Remarks: inhibitors of firefly luciferase expression or activity, dose response, H4 neuroglioma cells, luminescence (AID 1990)
# Format: functional, cell-based
Active and inactive are the calls of the source.
EC50 reference

INSERT INTO results (molecule, assay_result) VALUES
  ('COc1ccc(NC(=O)C(=O)c2cn(CC(=O)N3CCCC3)c3ccccc23)cc1', '0.269 µM (inconclusive)'),
  ('CCCN1C(=O)c2ccccc2NC1c1ccc(Cl)c(Cl)c1 (configuration not stated)', '16 µM (active)'),
  ('CCCOc1ccc(C(=O)NNC(=S)NC(=O)c2ccccc2)cc1', '12.5 µM (active)'),
  ('O=C(Nc1ccc2nc3n(c(=O)c2c1)CCCCC3)c1c(F)ccc([N+](=O)[O-])c1F', '> 120 µM (not active)');

EC50 measured on `C/C(=N\NC(=O)COc1ccccc1-c1ccccc1)c1ccc(O)cc1O` = 11.1 µM (active)

EC50 measured on `Cc1nc2cc(-c3ccccc3)nn2c(C)c1CCC(=O)N1CCN(c2ccccc2)CC1` = 16.6 µM (active)

EC50 measured on COc1ccc2cc1Oc1ccc(cc1)CC1c3c(cc(OC)c4c3Oc3cc5c(cc3O4)CCNC5C2)CCN1C (configuration not stated) = > 120 µM (not active)

---

# Target: Genome polyprotein (dengue virus type 2)
# Sequence (P29990 2492-3391 limits assumed): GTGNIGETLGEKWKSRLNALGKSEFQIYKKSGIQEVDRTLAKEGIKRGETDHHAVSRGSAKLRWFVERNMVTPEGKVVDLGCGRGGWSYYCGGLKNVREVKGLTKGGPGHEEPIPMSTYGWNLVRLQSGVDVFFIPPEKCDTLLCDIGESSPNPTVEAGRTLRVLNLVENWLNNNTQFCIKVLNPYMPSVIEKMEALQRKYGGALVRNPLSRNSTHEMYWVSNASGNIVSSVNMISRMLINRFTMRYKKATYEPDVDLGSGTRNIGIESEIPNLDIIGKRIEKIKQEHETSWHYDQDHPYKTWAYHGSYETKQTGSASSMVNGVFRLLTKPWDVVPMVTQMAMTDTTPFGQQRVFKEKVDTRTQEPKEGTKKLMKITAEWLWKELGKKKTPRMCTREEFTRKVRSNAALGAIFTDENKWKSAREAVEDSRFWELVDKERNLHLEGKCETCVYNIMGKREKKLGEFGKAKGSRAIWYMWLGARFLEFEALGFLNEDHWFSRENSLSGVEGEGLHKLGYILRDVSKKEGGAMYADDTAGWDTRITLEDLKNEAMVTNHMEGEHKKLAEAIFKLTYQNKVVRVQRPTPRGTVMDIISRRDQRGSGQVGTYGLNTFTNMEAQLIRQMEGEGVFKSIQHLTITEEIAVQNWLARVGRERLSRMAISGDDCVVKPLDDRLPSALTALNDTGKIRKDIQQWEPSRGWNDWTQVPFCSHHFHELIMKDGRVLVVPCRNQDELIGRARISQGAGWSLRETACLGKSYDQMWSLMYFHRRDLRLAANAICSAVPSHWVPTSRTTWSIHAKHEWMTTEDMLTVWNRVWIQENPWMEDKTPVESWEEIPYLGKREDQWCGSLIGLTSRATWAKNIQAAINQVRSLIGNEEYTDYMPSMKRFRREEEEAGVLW
# Assay Remarks: Dengue-2 NS5 methyltransferase inhibitors, primary screen, biochemical, confirmation dose response (AID 588689)
# Type: functional
The source made the active and inactive calls.
Measurement Kind: IC50

Sample records with IC50:
INSERT INTO results (molecule, assay_result) VALUES
  ('O=C(CN1C(=O)/C(=C2/SC(=S)N(CCS(=O)(=O)O)C2=O)c2ccccc21)Nc1cccc(Br)c1', '61.6 µM (active)'),
  ('CC(=O)N1CCc2c(sc(NC(=O)c3ccc([N+](=O)[O-])o3)c2C(N)=O)C1', '89.3 µM (active)'),
  ('COc1cccc(/C=C2\SC(=S)N(C(Cc3ccccc3)C(=O)O)C2=O)c1 (stereo unspecified)', '44.4 µM (active)'),
  ('COc1ccccc1/C=C1/C(=O)ON=C1C', '> 100 µM (active)');

IC50 measured on `Cc1n[nH]c(O)c1C(c1ccc(-c2ccc(Cl)c(C(=O)O)c2)o1)c1c(O)n[nH]c1C` = > 100 µM (active)

IC50 measured on `CN1CCN(C2=C(Cl)C(=O)c3ccccc3C2=O)CC1` = 6.33 µM (active)

IC50 measured on `NS(=O)(=O)c1ccc(-c2ccc(C=C3C(=O)NC(=O)NC3=O)o2)cc1` = > 100 µM (active)

---

# Target: Bcl-2-related protein A1 (Mus musculus)
# Sequence (Q07440 whole entry): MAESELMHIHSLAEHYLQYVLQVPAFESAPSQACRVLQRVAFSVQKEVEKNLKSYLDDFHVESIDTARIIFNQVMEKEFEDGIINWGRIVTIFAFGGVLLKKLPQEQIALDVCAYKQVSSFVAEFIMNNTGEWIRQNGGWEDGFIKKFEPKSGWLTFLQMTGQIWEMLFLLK
# Assay Remarks: Bfl-1 inhibitors blocking BH3 peptide binding, confirmation, biochemical, TR-FRET, mouse Bfl-1 (AID 621);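 further: TR-FRET binding of GST-Bfl-1 to FITC-labelled Bid peptide via terbium antibody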
Calls of active or inactive are those of the source.
Measurement Kind: IC50

IC50 measured on `O=C1C(Cl)=C(N2CCN(CCOCCO)CC2)C(=O)N1c1ccc([N+](=O)[O-])cc1` = 3.51 µM (active)

IC50 measured on `Clc1ccc(-n2nnc(-c3cccnc3Cl)n2)cc1Cl` = > 100 µM (not active)

IC50 measured on `O=C1C(Cl)=C(Cl)C(=O)N1c1c(Cl)cccc1Cl` = 30 µM (active)

IC50 measured on `O=C1C(Cl)=C(N2CCN(c3ccc(Cl)cc3)CC2)C(=O)N1c1ccc(Cl)c(Cl)c1` = > 100 µM (not active)
